target: SARS-CoV-2 Protein E (Severe acute respiratory syndrome coronavirus 2); test: two-electrode voltage clamp, X. laevis oocytes; details: read-out: % block at 10 μM
Sequence (P0DTC4 whole entry): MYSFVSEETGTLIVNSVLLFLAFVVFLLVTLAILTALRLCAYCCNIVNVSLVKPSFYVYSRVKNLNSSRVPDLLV
PROPERTY NAME: inhibition at 10 µM (%)
Write the value in % as a bare number.

Data request: Quote inhibition at 10 µM reported for Cc1cc(O)c2c(c1)C(=O)c1cc(O)cc(O)c1C2=O please.
Data returned: 60

Data request: Quote inhibition at 10 µM reported for N=C(N)NC(=O)c1nc(Cl)c(N2CCCCCC2)nc1N [hexamethylene-amiloride] please.
Data returned: 50

Data request: Quote inhibition at 10 µM reported for NC12CC3CC(CC(C3)C1)C2 please.
Data returned: 77

Data request: Quote inhibition at 10 µM reported for c1ccc2c(c1)Cc1ccccc1O2 please.
Data returned: 80
